# Test system: RPMI-8226
# Method notes: NCI tumour cell line growth inhibition, 48 h
The source made the active and inactive calls. Cut-off read from the data, not from the text of the source: active = GI50 up to about 1.1 µM and inactive = higher.
Possible outcomes: TRUE = active, FALSE = inactive

Compound	Class name
COc1ccc2/c(=C/c3ccc(N(C)C)cc3)c3cc(-c4ccccc4)[n+](C)n3c2c1	TRUE
CCOC(=O)C1=C(C)NC(=S)NC1c1cccc(O)c1 (stereo not drawn) [MONASTROL]	FALSE
O=C1CCC(c2ccccc2)=NN1c1nc2ccccc2s1	FALSE

###

# Test system: SNB-78
# Method notes: NCI tumour cell line growth inhibition, 48 h
Activity calls are given as the source filed them. Cut-off read from the data, not from the text of the source: active = GI50 up to about 1.1 µM and inactive = higher.
Possible outcomes: active, inactive

Compound	Experimental system	Class name
Cc1cccc2cc3cccc(C(=O)NCCN(C)C)c3nc12	SNB-78	active
O=C1C=Cc2c(-c3ccccc3)oc3cccc1c23	SNB-78	inactive
CSc1cc(C(C)(C)C)ccc1C(O)c1ccc(C(C)(C)C)cc1SC	SNB-78	inactive
Cc1ccc(S(=O)(=O)OC(c2ccc(Cl)cc2Cl)C2OC(=O)c3ccccc32)cc1 (centres undefined)	SNB-78	inactive
O=C(Cc1nc2ccccc2s1)C(=O)Nc1ccccc1C(F)(F)F	SNB-78	inactive
Cc1cccc(C(C)(C)C)c1NC(=O)CCl	SNB-78	inactive
Cc1cc(Br)ccc1/N=N/c1c(C)nn(-c2ccccc2)c1-c1ccccc1	SNB-78	inactive
CCCCCCCC(=O)O[C@H]1[C@H]2[C@@H](CC1(C)C)C(=O)[C@]13O[C@H]1C(=O)[C@]1(CO1)[C@]23C	SNB-78	inactive
Cc1cc2c(cc1C)[n+]([O-])c(C(=O)C/C(=N/OCCCc1ccccc1)C(=O)Nc1cc(Cl)ccc1Cl)c(C)[n+]2[O-]	SNB-78	inactive
NNC(=S)N/N=C/C(Cl)=C(\Cl)C(=O)O	SNB-78	inactive
COc1ccc(C(=O)C(c2ccc(OC)cc2)C2(O)C(=O)Nc3ccccc32)cc1 (centres undefined)	SNB-78	inactive
CC(=O)OCC(=O)[C@@]12OC(C)(C)O[C@@H]1C[C@H]1[C@@H]3CC(C=O)=C4C=C(OCCCl)CC[C@]4(C)[C@@]3(F)[C@@H](O)C[C@@]12C	SNB-78	inactive
CCOC(=O)c1cc(C(=O)O)c(=O)n2c1[nH]c1ccccc12	SNB-78	inactive
Cc1cn(C2C=CC(=O)C(C)O2)c(=O)[nH]c1=O (centres undefined)	SNB-78	inactive

###

Parameter GI50: see the listing below.
# System: CCRF-CEM
# Method notes: NCI tumour cell line growth inhibition, 48 h
The source made the active and inactive calls. Rule as the data show it: active = GI50 up to about 1.1 µM and inactive = higher.

Molecule	GI50
Clc1cccc(C2SCc3nc4ccccc4n32)c1Cl (stereo not given)	19.1 µM (inactive)
CC(C)(C)c1ccc(-c2nnc(SCc3ccc(Cl)cc3)n2-c2cccc(C(F)(F)F)c2)cc1	7.87 µM (inactive)
O=C1c2ccccc2-c2c1c(-c1ccc(O)cc1O)nc1ccc3ccccc3c21	> 100 µM (inactive)
Cc1cn(CCOCCOC(=O)NC(CCCNC(N)=O)C(=O)O)c(=O)[nH]c1=O (stereo not given)	> 100 µM (inactive)
O=C1CC(c2c(-c3ccccc3)[nH]c3ccccc23)C(=O)N1c1ccccc1 (stereo not given)	63.7 µM (inactive)
CC(=O)OCCOCn1c2ccccc2c2c3c(c4c5ccccc5n(COCCOC(C)=O)c4c21)C(=O)N(Cc1ccccc1)C3=O	> 100 µM (inactive)
C=CCOC(=O)Cn1cnc2c(N)ncnc21	> 100 µM (inactive)
O=C(O)CN1CCN2CCCCCN(CC1)CCN(CC(=O)O)CC2	> 100 µM (inactive)
NCCCCNOCCCN	> 100 µM (inactive)
COc1cc(C2OC[C@@H]3C(=O)OC[C@H]23)cc(O)c1OC (stereo not given in full)	> 100 µM (inactive)

###

# System: IGROV-1
# Method notes: NCI tumour cell line growth inhibition, 48 h
The source made the active and inactive calls. Cut-off read from the data, not from the text of the source: active = GI50 up to about 1.1 µM and inactive = higher. Where a SMILES comes first, the peptide text is derived from it. [ ]: non-standard residue; d: D form. The star is where a group is joined. Phe(4-NO2) = N[CH](Cc1ccc([N+](=O)[O-])cc1)C(=O)O; Boc = CC(C)(C)OC(=O)*; OtBu = CC(C)(C)O*
Possible outcomes: active, inactive

Compound	Class name
CCOC(=O)c1csc(NC(=O)CN2CCCCC2)n1	inactive
CC(C)c1cccc(C(C)C)c1NC(=O)C(=O)C(C(=O)c1ccc2ccccc2c1)C1OC(=O)c2ccccc21 (stereo not given)	inactive
COC(=O)/C=C\S/C(=C(/c1ccccc1)n1ccc(C(=O)OC)n1)c1ccccc1	inactive
COc1c(OC)c(OC)c2c(=O)c(OC)c(-c3ccc4c(c3)OCO4)oc2c1OC	inactive
CC(=O)/C(=C/n1ccc(=O)[nH]c1=S)C(=O)Nc1ccccc1C	inactive
C[C@H](CCC(=O)NCC(=O)O)[C@H]1CC[C@H]2[C@@H]3[C@H](O)C[C@@H]4C[C@H](O)CC[C@]4(C)[C@H]3CC[C@]12C	inactive
COC(=O)CC1CC2(C(=O)OC)c3[nH]c4ccccc4c3CCN2C1=O (stereo not given)	inactive
CCC1(CC)C(=O)NN(C(=O)c2ccc(Cl)cc2)C1=O	inactive
Cc1cc(C)c(-n2[nH]c(=O)n(C)c2=O)c(C)c1	inactive
CC(=O)O[C@@H]1[C@H](OC2CCCCC2(c2ccccc2)c2ccccc2)O[N+]([O-])=CC12CCCCC2 (stereo not given in full)	inactive
CC(=O)NC(CCC(=O)OC(C)(C)C)C(=O)NC(CCC(=O)OC(C)(C)C)C(=O)NC(Cc1ccc([N+](=O)[O-])cc1)C(=O)NC(CCCCNC(=O)OC(C)(C)C)C(=O)NC(CCCCNC(=O)OC(C)(C)C)C(=O)NCC(=O)O (stereo not given) (Ac-E(OtBu)E(OtBu)[Phe(4-NO2)]K(Boc)K(Boc)G-OH; configuration not given here)	inactive
COC1C=CC(C(=O)[N+]2=Cc3[nH]c4ccccc4c3CC2)O1 (stereo not given)	inactive
C1CCN(c2nc(=[N+]3CCCCC3)ss2)CC1	inactive
CCN(CC)CCNc1nc2ccc([N+](=O)[O-])cc2[n+]([O-])n1	inactive
CCCCCCC(C)CCCCCCCCCCC(=O)O (stereo not given)	inactive
Fc1ccc(OCc2nc3cc(C(F)(F)F)ccc3nc2-c2ccccc2)cc1	inactive
COc1ccccc1/C=C/c1ccnc2ccccc12	inactive
NC1=C(N2CCCCC2)C(=O)NC2=N/C(=C\c3ccccc3)C(=O)N21	inactive
Clc1cccc(C2SCc3nc4ccccc4n32)c1Cl (stereo not given)	inactive
N#CC(NNC(=O)c1ccccc1O)c1c(O)ccc2ccccc12 (stereo not given)	inactive
c1ccc(SCCP(CCP(c2ccccc2)c2ccccc2)c2ccccc2)cc1 (stereo not given)	inactive
COc1ccc(N2C(=O)C3c4[nH]c5ccc(F)cc5c4C4CCC(C(C)(C)C)CC4C3C2=O)cc1 (stereo not given)	inactive
CSC(=S)N(C)NC(=O)c1cccc(C(=O)NN(C)C(=S)SC)n1	inactive
CCOc1ccc(Nc2nc3c(s2)C(=O)c2ccccc2C3=O)cc1	inactive
COc1cc(C2CC(C)(O)Oc3cc4c(cc32)OCO4)cc(OC)c1OC (stereo not given)	active
CC(C)c1cccc(=O)c(O)c1	inactive
CC(C)C[C@H](NC(=O)[C@H](Cc1cccc2ccccc12)NS(=O)(=O)c1cccc2cccnc12)B(O)O	active
CCOC(=O)Nc1c(C#N)[n+]([O-])c2cc(Cl)c(Cl)cc2[n+]1[O-]	inactive
CSc1cc(C(C)(C)C)ccc1C(O)c1ccc(C(C)(C)C)cc1SC	inactive
C/C(=N\NC(=S)N1CCN(c2ccccn2)CC1)c1nccs1	active

###

# Tested on: KM12
# Method notes: NCI tumour cell line growth inhibition, 48 h
The source made the active and inactive calls. Cut-off read from the data, not from the text of the source: active = GI50 up to about 1.1 µM and inactive = higher.
Parameter GI50: see the listing below.
Result type: GI50

Compound	Reported value
N=C(N)NCCCC(NC(=O)c1c2ccccc2nc2ccccc12)C(=O)O (stereo not drawn)	> 100 µM (inactive)
Cc1c/c(=N/NC(=O)c2ccncc2)n2nc(N)sc2n1	> 100 µM (inactive)
N#CC1=C(N)N(/N=C/c2ccco2)C(c2ccco2)C1(C#N)C#N (stereo not drawn)	15.1 µM (inactive)
O=NC1C(Cl)C2CC1C1C(Br)C(Br)CC21 (stereo not drawn)	> 100 µM (inactive)
O=C(CC1C=CCS1(=O)=O)NCc1ccccc1 (stereo not drawn)	> 100 µM (inactive)
Cc1ccc2c3c(cnc2n1)C(=O)OCCN3C	> 100 µM (inactive)
COC(=O)c1cccc2c3ccccc3c3ccccc3c12	39.5 µM (inactive)
CCCCN(CCCC)C1(c2cc3ccccc3s2)CCCCC1.[O-][Cl+3]([O-])([O-])O	16 µM (inactive)
[N-]=[N+]=NC1(Cc2ccccc2)C(=O)c2cccc3c2N(CCC3)C1=O (stereo not drawn)	> 100 µM (inactive)
CCCCCCCCCCCCCCCCCCN(C)CC(COP(=O)([O-])OCC[N+](C)(C)C)OC (stereo not drawn)	3.52 µM (inactive)
CCCCCCC(C)CCCCCCCCCCC(=O)O (stereo not drawn)	64.7 µM (inactive)
CC(=O)Nc1ccc(-c2nc3ccccc3s2)cc1Br	> 100 µM (inactive)
CN(Cc1nc2c(N)nc(N)nc2nc1N)c1ccc(C(=O)NC(CCC(=O)O)C(=O)O)cc1 (stereo not drawn)	> 100 µM (inactive)
